Test system: LG0703-F948-PDC complex spheroid viability;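 also: spheroids exposed to agents for 7 days; 100% = DMSO vehicle wells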
Assay: Anticancer human tumor LG0703-F948-PDC patient-derived lung adenocarcinoma cell line growth inhibition [RAS]
Settings: second compound 0.003 µM; first compound 0.01 µM; active compounds read low
Exercise: state measured viability, T/C for each of the compounds provided.
Answers are plain numbers, in %.

These solved cases illustrate the format of a correct answer.
COMPOUND | SYSTEM UNDER TEST | RESULT VALUE
C=CC(=O)Nc1cc(Nc2nccc(-c3cn(C)c4ccccc34)n2)c(OC)cc1N(C)CCN(C)C + CCn1c(-c2cc(N3CCN(C)CC3)cnc2C(C)OC)c2c3cc(ccc31)-c1csc(n1)CC(NC(=O)C1CC1C)C(=O)N1CCCC(N1)C(=O)OCC(C)(C)C2 | LG0703-F948-PDC complex spheroid viability | 18.5
O=C(c1ccc(F)c(F)c1Nc1ccc(I)cc1F)N1CC(O)([C@@H]2CCCCN2)C1 + CCn1c(-c2cc(N3CCN(C)CC3)cnc2C(C)OC)c2c3cc(ccc31)-c1csc(n1)CC(NC(=O)C1CC1C)C(=O)N1CCCC(N1)C(=O)OCC(C)(C)C2 | LG0703-F948-PDC complex spheroid viability | 22.3
CC(C)n1nc(-c2ccc3oc(N)nc3c2)c2c(N)ncnc21 + CCn1c(-c2cccnc2C(C)OC)c2c3cc(ccc31)N1CCOC(CC(NC(=O)C(C(C)C)N(C)C(=O)C3(F)CCN(C(=O)C#CC(C)(C)N(C)C)CC3)C(=O)N3CCCC(N3)C(=O)OCC(C)(C)C2)C1 | LG0703-F948-PDC complex spheroid viability | 49.8

// each compound listed below needs its viability, T/C
1. C=CC(=O)N1CCN(c2nc(OCC3CCCN3C)nc3c(F)c(-c4nc(N)cc(C)c4C(F)(F)F)c(Cl)cc23)C(C)C1 (stereo not drawn) + CCn1c(-c2cc(N3CCN(C)CC3)cnc2C(C)OC)c2c3cc(ccc31)-c1csc(n1)CC(NC(=O)C1CC1C)C(=O)N1CCCC(N1)C(=O)OCC(C)(C)C2
2. CC(C)n1nc(-c2ccc3oc(N)nc3c2)c2c(N)ncnc21 + CCn1c(-c2cc(N3CCN(C)CC3)cnc2C(C)OC)c2c3cc(ccc31)-c1csc(n1)CC(NC(=O)C1CC1C)C(=O)N1CCCC(N1)C(=O)OCC(C)(C)C2
3. O=C(c1ccc(F)c(F)c1Nc1ccc(I)cc1F)N1CC(O)([C@@H]2CCCCN2)C1 + CCn1c(-c2cccnc2C(C)OC)c2c3cc(ccc31)N1CCOC(CC(NC(=O)C(C(C)C)N(C)C(=O)C3(F)CCN(C(=O)C#CC(C)(C)N(C)C)CC3)C(=O)N3CCCC(N3)C(=O)OCC(C)(C)C2)C1
4. CCN1CCN(Cc2ccc(Nc3ncc(F)c(-c4cc(F)c5nc(C)n(C(C)C)c5c4)n3)nc2)CC1 + CCn1c(-c2cc(N3CCN(C)CC3)cnc2C(C)OC)c2c3cc(ccc31)-c1csc(n1)CC(NC(=O)C1CC1C)C(=O)N1CCCC(N1)C(=O)OCC(C)(C)C2
5. C=CC(=O)N1CCN(c2nc(OCC3CCCN3C)nc3c(F)c(-c4nc(N)cc(C)c4C(F)(F)F)c(Cl)cc23)C(C)C1 (stereo not drawn) + CCn1c(-c2cccnc2C(C)OC)c2c3cc(ccc31)N1CCOC(CC(NC(=O)C(C(C)C)N(C)C(=O)C3(F)CCN(C(=O)C#CC(C)(C)N(C)C)CC3)C(=O)N3CCCC(N3)C(=O)OCC(C)(C)C2)C1

Response line:
40.5
13.1
79.8
49.1
85.6
